B1: 2K2A (parent)
chain: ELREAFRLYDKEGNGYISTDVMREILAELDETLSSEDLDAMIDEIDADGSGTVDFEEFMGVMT

- Variants of: B1
- runDescription: folding stability dG (cDNA display proteolysis); higher = more stable
- assayContext: PBS, room temperature
quantityMeasured: folding stability dG (kcal/mol)
Respond with the bare value in kcal/mol.

These recorded examples may help you get a feel for the data.
ELREAFRLYFKEGNGYISTDVMREILAELDETLSSEDLDAMIDEIDADGSGTVDFEEFMGVMT :: 1.66
ELREAFRLYDKEGEGYISTDVMREILAELDETLSSEDLDAMIDEIDADGSGTVDFEEFMGVMT :: 0.908
ELREAFRLYDKEGNGYISTDVMREILAELDETLSSEDLDAMIDEIDADGSGTVDFEEFMAVMT :: 2.53
ELREAFRLYDKEGNGYISTDTMREILAELDETLSSEDLDAMIDEIDADGSGTVDFEEFMGVMT :: 1.92
ELREAFRLYDKEGNGYISTDVMREILAELDETLYSEDLDAMIDEIDADGSGTVDFEEFMGVMT :: 0.751
ELREAFRLYDKEGNGYISTDVMREILAELQETLSSEDLDAMIDEIDADGSGTVDFEEFMGVMT :: 1.38

What does the data say about its folding stability dG? Entry: ELREAFRLYDKEGNGYISTDVMREILAELDETLSSEDLDAMIDEMDADGSGTVDFEEFMGVMT
1.93

What does the data say about its folding stability dG? Entry: ELREAFRLYDKEGNGYISTDVMREILAELDETLSSEDLDAMIDEIDADGSGTVDFEEWMGVMT
1.69

What does the data say about its folding stability dG? Entry: ELREAFRLYDKEGNGYISTDVMREILAELDETLSSEDLDAMIDEIDADGSGTVPFEEFMGVMT
1.14

Reference for the values: the MegaScale stability set (Tsuboyama et al. 2023)
